Source of measurements: patent US20130289246A1

As shown below, each of these binders has a reported OD value.
- Tgt: recombinant soluble 1957 H2 HA (A/Japan/305+/1957) (Influenza A virus A/Japan/305+/1957 (H2N2))
- Assay text: ELISA, supernate

Binder: mAb 5I17 (antibody, V domains shown) VH: EVQLVESGGGVVQPGRSLRLSCAASGFSFSNYAMHWVRQAPGKGLEWVALISFDGSDKYYADSVKGRFTMSRDNSKNTLYLQMNSLRAEDTAVYYCARDEPYCGGDCFAFDVWGQGTMVTVS VL: DIQLTQSPSSLSASAGDRVSMTCRASQIISSSLNWYQQKPGKAPKLLIYAASNLQSGVPSRFSGSGSGTDFTLTISSLQPEDFATYYCQQSYSTPPELTFGGGTKVDIKR
Unit descriptor: OD
OD: 0.85
--
Binder: mAb 10E15 (antibody, V domains shown) VH: EVQLLESGGGVVQPGRSLRLSCAASGFTFRTYGMHWVRQAPGKGLEWVAVISHDGNLKYYGGSVKGRFTISRDNSKNALYLQMNSLRVDDTALYYCARGIGITDAFDIRGQGTMVVVS VL: QSVLTQPPSVSAAPGQKVTISCSGSSSNIGKNYVSWYQQLPGTAPKLLIYDNDKRPSGIPDRFSGSKSGTSATLGITGLQTGDEADYHCGAWDSSLNGGVFGGGTKVTVLG
Unit descriptor: OD
OD: 0.485
